Recorded inhibition for the following compounds
molecular target: MAP kinase-interacting serine/threonine-protein kinase 1 (Homo sapiens, UniProt Q9BUB5); settings: Sf21, dose 500.0 nM, time 50.0 min
Sequence (Q9BUB5 whole entry, looked up, the tested form may be a part): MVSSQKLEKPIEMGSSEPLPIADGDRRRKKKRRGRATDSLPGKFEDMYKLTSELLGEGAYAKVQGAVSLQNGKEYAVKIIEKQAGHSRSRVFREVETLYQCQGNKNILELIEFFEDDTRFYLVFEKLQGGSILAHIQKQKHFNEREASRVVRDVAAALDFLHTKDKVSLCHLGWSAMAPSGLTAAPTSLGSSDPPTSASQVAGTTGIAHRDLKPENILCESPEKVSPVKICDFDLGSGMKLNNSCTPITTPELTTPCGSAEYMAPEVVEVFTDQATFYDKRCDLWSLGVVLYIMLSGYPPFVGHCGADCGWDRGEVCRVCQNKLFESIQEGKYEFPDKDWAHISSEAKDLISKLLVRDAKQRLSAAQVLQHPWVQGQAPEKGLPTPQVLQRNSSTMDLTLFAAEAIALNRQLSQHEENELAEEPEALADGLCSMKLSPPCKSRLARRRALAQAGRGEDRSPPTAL
Reply numerically in %, unit not repeated.

Solved cases below.
Q: API: value(readout= inhibition, system= MAP kinase-interacting serine/threonine-protein kinase 1 (Homo sapiens, UniProt Q9BUB5), query= O=C(c1ccc(-c2ccc3ncc(-c4cnc5ccccc5c4)n3c2)cc1)N1CCNCC1 )
A: 70.7

Q: Could you do the same for O=C(c1ccc(-c2ccc3ncc(-c4ccc5ncccc5c4)n3c2)cc1)N1CCNCC1 , please?
A: 73.5

Q: Could you do the same for O=C(c1ccc(-c2ccc3ncc(-c4ccc5cnccc5c4)n3c2)cc1)N1CCC(N2CCOCC2)CC1 , please?
A: 87.8

Q: Could you do the same for O=C(c1ccc(-c2ccc3ncc(-c4cnc5ccccc5c4)n3c2)cc1)N1CCC(N2CCOCC2)CC1 , please?
A: 40.6

Q: Could you do the same for O=C(c1ccc(-c2ccc3ncc(-c4ccc5cnccc5c4)n3c2)cc1)N1CCOCC1 , please?
A: 93.7

Q: Could you do the same for O=C(c1ccc(-c2ccc3ncc(-c4cnc5ccccc5c4)n3c2)cc1)N1CCC(N2CCCCC2)CC1 , please?
A: 71

Q: Could you do the same for O=C(c1ccc(-c2ccc3ncc(-c4ccc5cnccc5c4)n3c2)cc1)N1CCC(N2CCCCC2)CC1 , please?
A: 92.9

Q: Could you do the same for O=C(c1ccc(-c2ccc3ncc(-c4ccc5ncccc5c4)n3c2)cc1)N1CCOCC1 , please?
A: 74.7

Further cases:
Q: API: value(readout= inhibition, system= MAP kinase-interacting serine/threonine-protein kinase 1 (Homo sapiens, UniProt Q9BUB5), query= O=C(c1ccc(-c2ccc3ncc(-c4cnc5ccccc5c4)n3c2)cc1)N1CCOCC1 )
A: 71

----------
Recorded inhibition for the following molecules
target: MAP kinase-interacting serine/threonine-protein kinase 2 (Homo sapiens, UniProt Q9HBH9); settings: Sf21, dose 500.0 nM, time 50.0 min
Sequence (Q9HBH9 whole entry, looked up, the tested form may be a part): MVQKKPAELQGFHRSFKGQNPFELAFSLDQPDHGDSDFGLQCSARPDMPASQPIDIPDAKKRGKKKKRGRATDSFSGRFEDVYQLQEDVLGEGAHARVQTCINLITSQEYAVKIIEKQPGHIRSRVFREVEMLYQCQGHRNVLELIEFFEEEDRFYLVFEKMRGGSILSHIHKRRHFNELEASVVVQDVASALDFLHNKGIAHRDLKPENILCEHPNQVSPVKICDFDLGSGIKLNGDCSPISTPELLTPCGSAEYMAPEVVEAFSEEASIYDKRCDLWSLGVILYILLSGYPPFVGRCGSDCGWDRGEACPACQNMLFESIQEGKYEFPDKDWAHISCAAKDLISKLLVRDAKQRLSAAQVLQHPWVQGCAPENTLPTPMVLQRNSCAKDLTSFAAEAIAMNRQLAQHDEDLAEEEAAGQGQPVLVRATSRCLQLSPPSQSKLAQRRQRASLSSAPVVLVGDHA
Reply numerically in %, unit not repeated.

Solved cases below.
Q: inhibition for O=C(c1ccc(-c2ccc3ncc(-c4cnc5ccccc5c4)n3c2)cc1)N1CCOCC1 ?
A: 21

Q: Could you do the same for O=C(c1ccc(-c2ccc3ncc(-c4ccc5ncccc5c4)n3c2)cc1)N1CCC(N2CCOCC2)CC1 , please?
A: 34.9

Q: Could you do the same for O=C(c1ccc(-c2ccc3ncc(-c4ccc5ncccc5c4)n3c2)cc1)N1CCOCC1 , please?
A: 64

Q: Could you do the same for O=C(c1ccc(-c2ccc3ncc(-c4cnc5ccccc5c4)n3c2)cc1)N1CCC(N2CCOCC2)CC1 , please?
A: 18.7

Q: Could you do the same for O=C(c1ccc(-c2ccc3ncc(-c4ccc5cnccc5c4)n3c2)cc1)N1CCOCC1 , please?
A: 106

Further cases:
Q: inhibition for O=C(c1ccc(-c2ccc3ncc(-c4ccc5cnccc5c4)n3c2)cc1)N1CCC(N2CCCCC2)CC1 ?
A: 74.7

Q: Could you do the same for O=C(c1ccc(-c2ccc3ncc(-c4cnc5ccccc5c4)n3c2)cc1)N1CCC(N2CCCCC2)CC1 , please?
A: 48.8

Q: Could you do the same for O=C(c1ccc(-c2ccc3ncc(-c4cnc5ccccc5c4)n3c2)cc1)N1CCNCC1 , please?
A: 68.1

Q: Could you do the same for O=C(c1ccc(-c2ccc3ncc(-c4ccc5ncccc5c4)n3c2)cc1)N1CCNCC1 , please?
A: 49.9

----------
Recorded IC50 for the following compounds
target: MAP kinase-interacting serine/threonine-protein kinase 1 (Homo sapiens); assay: Inhibition of N-terminal GST-fused human full length recombinant MNK1 (1 to 424 residues) expressed in baculovirus-infected Sf21 cells using TATKSGSTTKNR as substrate preincubated with enzyme and substrate for 10 mins followed by ATP addition and measured after 40 mins by ADP-glo luminescence assay
Sequence (Q9BUB5 whole entry, the tested form may be a part): as the sequence (Q9BUB5 whole entry, looked up, the tested form may be a part) above
Reply numerically in nM, unit not repeated.

Solved cases below.
Q: IC50 for O=C(c1ccc(-c2ccc3ncc(-c4ccc5cnccc5c4)n3c2)cc1)N1CCOCC1 ?
A: 7

Q: Could you do the same for N[C@@H]1CCCN(C(=O)c2ccc(-c3cn4c(-c5ccc6cnccc6c5)cnc4cn3)cc2)C1 , please?
A: 42

Q: Could you do the same for NC1CCN(C(=O)c2ccc(-c3cn4c(-c5ccc6cnccc6c5)cnc4cn3)cc2)CC1 , please?
A: 32.1

Further cases:
Q: IC50 for O=C(c1ccc(-c2ccc3ncc(-c4cnc5ccccc5c4)n3c2)cc1)N1CCOCC1 ?
A: 154

Q: Could you do the same for O=C(c1ccc(-c2ccc3ncc(-c4cnc5ccccc5c4)n3c2)cc1)N1CCNCC1 , please?
A: 67.6

Q: Could you do the same for O=C(c1ccc(-c2ccc3ncc(-c4ccc5cnccc5c4)n3c2)cc1)N1CCNCC1 , please?
A: 9.4

Q: Could you do the same for NC1CCN(C(=O)c2ccc(-c3ccc4ncc(-c5ccc6cnccc6c5)n4c3)cc2)CC1 , please?
A: 5.2

----------
Recorded inhibition for the following compounds
biological target: MAP kinase-interacting serine/threonine-protein kinase 1 (Homo sapiens, UniProt Q9BUB5); conditions: Sf21, dose 500.0 nM, time 50.0 min
Reply numerically in %, unit not repeated.

Solved cases below.
Q: inhibition for N[C@H]1CCCN(C(=O)c2ccc(-c3ccc4ncc(-c5ccc6cnccc6c5)n4n3)cc2)C1 ?
A: 103

Q: Could you do the same for O=C(c1ccc(-c2ccc3ncc(-c4ccc5ncccc5c4)n3c2)cc1)N1CCC(N2CCCCC2)CC1 , please?
A: 62.8

Q: Could you do the same for O=C(c1ccc(-c2ccc3ncc(-c4ccc5ncccc5c4)n3c2)cc1)N1CCC(N2CCOCC2)CC1 , please?
A: 49.8

Here is the next item to consider.
Q: inhibition for O=C(c1ccc(-c2ccc3ncc(-c4ccc5cnccc5c4)n3c2)cc1)N1CCNCC1 ?
A: 98.7

----------
biological target: MAP kinase-interacting serine/threonine-protein kinase 2 (Homo sapiens, UniProt Q9HBH9); experiment: Inhibition of N-terminal GST-fused human full length recombinant MNK2 (1 to 465 residues) expressed in baculovirus-infected Sf21 cells using TATKSGSTTKNR as substrate preincubated with enzyme and substrate for 10 mins followed by ATP addition and measured after 40 mins by ADP-glo luminescence assay
Sequence (Q9HBH9 whole entry, the tested form may be a part): as the sequence (Q9HBH9 whole entry, looked up, the tested form may be a part) above
readout_type: pIC50
Would you please state pIC50, meaning minus log10 of the concentration in mol/L, as a bare number?

Solved cases below.
Q: pIC50 for O=C(c1ccc(-c2ccc3ncc(-c4cnc5ccccc5c4)n3c2)cc1)N1CCOCC1 ?
A: 6.20

Q: Could you do the same for N[C@@H]1CCCN(C(=O)c2ccc(-c3ccc4ncc(-c5ccc6cnccc6c5)n4c3)cc2)C1 , please?
A: 8.05

Further cases:
Q: pIC50 for NC1CCN(C(=O)c2ccc(-c3ccc4ncc(-c5ccc6cnccc6c5)n4n3)cc2)CC1 ?
A: 7.80

Q: Could you do the same for N[C@H]1CCCN(C(=O)c2ccc(-c3cn4c(-c5ccc6cnccc6c5)cnc4cn3)cc2)C1 , please?
A: 7.71

Q: Could you do the same for O=C(c1ccc(-c2ccc3ncc(-c4ccc5cnccc5c4)n3c2)cc1)N1CCC(N2CCCCC2)CC1 , please?
A: 8.82

src = ChEMBL document CHEMBL4819134
